Hey, just so you know, these numbers are from PubChem BioAssay (NCI).

Field: log10 of TGI. Provide a value for each of the compounds that follow.
System: K-562 leukemia
Assay: NCI tumour cell line growth inhibition, 48 h
Scale: decimal log of TGI, TGI in µM.

May I ask what log10 of TGI has been recorded for Cc1cc([N+](=O)[O-])ccc1N=NC(=O)NNc1ccc([N+](=O)[O-])cc1C ?
1.60

May I ask what log10 of TGI has been recorded for Cc1ccc2[nH]c(C(=O)NN3C(=O)C(C)SC34CCCCC4C)c(-c3ccccc3)c2c1 (stereo unspecified) ?
1.78

May I ask what log10 of TGI has been recorded for O=[N+]([O-])c1ccc(Cl)cc1C=NC12CC3CC(CC(C3)C1)C2 ?
1.63

May I ask what log10 of TGI has been recorded for NCCCCNC1(c2cc3ccccc3s2)CCCCC1 ?
0.55

May I ask what log10 of TGI has been recorded for O=C1C(N=Nc2ccc(-c3nc4ccccc4[nH]3)cc2)NC(=S)N1c1ccccc1 (stereo unspecified) ?
1.55
